assay: RAM signaling pathway blockade in yeast – S. cerevisiae, Pdr1DBD-CYC8 efflux-inhibited sensitized strain, primary screen (AID 1298);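 further: 0% = DMSO untreated cells without growth and 100% = 10 µM 1-NA-PP1 full growth; higher means more yeast growth rescued from 5-FOA killing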; conditions: S. cerevisiae cbk1-as DSE1-URA3 strain, 5-FOA growth OD615, 2 d; at 50 µM; active compounds read high
attribute_measured: RAM network inhibition (%)

{"columns": ["compound", "recorded_number"],
 "data": [
  ["CCOC(=O)C1C(=O)OC2(CCOC(C)(C)C2)C1C(=O)OCC (configuration not stated)", 0.98],
  ["Cc1noc(C(=O)N2CCN(c3ccc(F)cc3)CC2)c1Cl", 9.11],
  ["Cc1ccc2oc(=O)c3cnn(CC(=O)N4CCCCCC4)c3c2c1", 2.05],
  ["CCN1CCCC1CNC(=O)C1c2ccccc2C(=O)N(CCOC)C1c1ccc(F)cc1 (configuration not stated)", 7.82],
  ["COc1ccc2c(c1OC)C(=O)OC2Nc1ccccn1 (configuration not stated)", 1.17],
  ["CCn1c(=O)c2cc(C(=O)N3CCOCC3)sc2c2ccccc21", 2.72],
  ["CN1CCN(S(=O)(=O)c2ccc3c4c(cccc24)C(=O)N3)CC1", 1.28],
  ["COc1ccc(C(=O)N2CCN(c3ccc(C)cc3C)CC2)cc1OC", 2.92],
  ["COC(=O)c1cc(NC(=O)c2nccnc2C(=O)O)cc(C(=O)OC)c1", -1.46],
  ["COC(=O)c1cc2c(s1)-c1ccccc1OC2", 3.14],
  ["CC1C(c2ccccc2)=[N+]([O-])C2(CCCC2)N1O (configuration not stated)", 1.41],
  ["COC(=O)c1c(C(=O)OC)c2n(c1C)Cc1ccccc1C2", 1.43]
]}

* * *

assay: inhibitors of the yeast RAM network, pilot screen, dse1pr::URA3 reporter, 5-FOA selection (AID 869);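 further: 0% = DMSO wells with no growth and 100% = 10 µM 1-NA-PP1 with full growth; RAM network block rescues cells from 5-FOA so hits raise OD615 growth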; settings: S. cerevisiae dse1pr::URA3 5-FOA growth, OD615, 2 d; at 10 µM; active compounds read high; strain carries analog-sensitive mutant Cbk1 kinase
Decision: inhibition compared against 1%; not below it gives yes, below it gives no.

{"columns": ["molecule", "label_class"],
 "data": [
  ["O=C(O)c1ccccc1C(=O)NCc1ccccc1", "no"],
  ["Cc1cc(C(=O)Nc2nnc(C3CCCCC3)s2)cs1", "yes"],
  ["Cn1nc(-c2ccc(Cl)cc2)c2cc(C(=O)N3CCOCC3)sc21", "yes"],
  ["COc1cc(NC(=O)c2onc(C)c2Cl)c(OC)cc1Cl", "yes"],
  ["CCOC(=O)CC1C(=O)NCCN1Cc1cccc(C(F)(F)F)c1 (stereo not drawn)", "yes"],
  ["Cc1cccc(NC(=O)CN(C)S(=O)(=O)c2cccc3cccnc23)c1", "no"],
  ["COc1ccc(OC)c(C2CC(=O)c3c([nH]c(C(=O)OCC4CCCO4)c3C)C2)c1 (stereo not drawn)", "yes"],
  ["COC(=O)c1ccc(NC(=O)c2cccc(OC)c2)cc1", "no"],
  ["COc1cccc(-c2nn(C)c3sc(C(=O)N4CCOCC4)cc23)c1", "yes"],
  ["CCCn1c(CCC(=O)O)ccc1-c1cccs1", "no"],
  ["CCCn1c(-c2ccc(OC)cc2)nc2ccccc21", "yes"],
  ["CCNCCNC(=O)c1c(O)c2cccc3c2n(c1=O)CCC3", "no"],
  ["CC(C)c1nnc(NC(=O)c2ccc(S(=O)(=O)N3CCOCC3)cc2)s1", "yes"],
  ["COc1cc2c(c(O)c1OC)C(=O)C(OC)CCC2 (stereo not drawn)", "no"],
  ["Cc1ccccc1-n1c(Cn2c(=O)sc3ccccc32)nnc1SCC(=O)NCC1CCCO1 (stereo not drawn)", "no"],
  ["O=C(N[C@@H](Cc1ccccc1)C(=O)O)c1cccnc1", "yes"],
  ["Cc1cc(C)cc(N(CC(=O)Nc2c(C)n(C)n(-c3ccccc3)c2=O)S(C)(=O)=O)c1", "no"],
  ["Cn1c(C(=O)NCc2ccccn2)cc2c(=O)n(C)c3ccccc3c21", "no"],
  ["O=C(Cn1nc(-c2ccc(Cl)cc2)ccc1=O)NCCN1CCOCC1", "no"],
  ["COc1cccc(-c2nc(CS(=O)(=O)CC(=O)N3CCN(C4CCCCC4)CC3)c(C)o2)c1", "no"],
  ["CCc1c(C)sc(NC(=O)c2cc(C)no2)c1C#N", "yes"],
  ["CC1CCN(S(=O)(=O)N2CCC(C(=O)N3CCC(N(C)CC4CCCO4)CC3)CC2)CC1 (stereo not drawn)", "yes"],
  ["COC(=O)c1cc(-c2ccc(Br)cc2)on1", "no"],
  ["O=C(COC(=O)c1ccc(S(=O)(=O)NCc2ccco2)cc1)Nc1ccccc1OC(F)F", "yes"],
  ["COc1ccc(NS(=O)(=O)c2ccc(OC)c(OC)c2)cc1OC", "no"],
  ["CN(C)Cc1cc(C(C)(C)C)c(O)c(C(C)(C)C)c1", "no"],
  ["CCCS(=O)(=O)N1CCn2c(nc3ccccc32)C1", "yes"]
]}

* * *

Entries annotated with measured RAM network inhibition
test: RAM signaling pathway blockade in yeast – S. cerevisiae, Pdr1DBD-CYC8 efflux-inhibited sensitized strain, primary screen (AID 1298);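 further: 0% = DMSO untreated cells without growth and 100% = 10 µM 1-NA-PP1 full growth; higher means more yeast growth rescued from 5-FOA killing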; conditions: S. cerevisiae cbk1-as DSE1-URA3 strain, 5-FOA growth OD615, 2 d; at 50 µM; active compounds read high
attribute_measured: RAM network inhibition (%)

{"columns": ["compound", "attribute_measured", "value_unit", "recorded_number"],
 "data": [
  ["CCCCN(C)c1nc(-c2ccco2)c2c(c1C#N)CC(C)(C)OC2", "RAM network inhibition", "%", -0.79],
  ["Cc1[nH]c2ccccc2c1CCC(N)=O", "RAM network inhibition", "%", 3.67],
  ["COc1ccc2cc(S(=O)(=O)N3CCOCC3)ccc2c1", "RAM network inhibition", "%", 1.03],
  ["O=C(CCNS(=O)(=O)c1cccc2nonc12)NCCc1ccc(Cl)cc1", "RAM network inhibition", "%", 3],
  ["CCOC(=O)c1cc2c(=O)n3ccccc3nc2n(CCCOC)c1=NC(=O)c1cccnc1", "RAM network inhibition", "%", 3.03],
  ["CCOCCCNC(=O)C(NC(=O)CNC(C)=O)c1ccc(Cl)cc1 (stereo not drawn)", "RAM network inhibition", "%", 2.91],
  ["Brc1cnc(N2CCCC2)nc1N1CCCCC1", "RAM network inhibition", "%", 0],
  ["CCOc1cccc(=O)c2c(C)n(CC3CCCO3)c(C)c12 (stereo not drawn)", "RAM network inhibition", "%", -1.39],
  ["O=C(Nc1cnc2ccccc2c1)c1cccnc1", "RAM network inhibition", "%", -0.15],
  ["N#Cc1ccc(OCCN2C(=O)NC3(CCSC3)C2=O)cc1 (stereo not drawn)", "RAM network inhibition", "%", 0.56],
  ["CCCCN=C(C)C1=C(O)CSC1=O", "RAM network inhibition", "%", 3.8],
  ["CCOC(=O)c1c(CN(CC)CC)oc2cc(Br)c(O)cc12", "RAM network inhibition", "%", 3.43],
  ["COc1cc(/C=N/n2cnnc2)ccc1OCCOc1ccccc1", "RAM network inhibition", "%", 5.62],
  ["O=C(O)CCC(=O)c1ccc2c(c1)OCCO2", "RAM network inhibition", "%", -1.36],
  ["O=C(O)c1n[nH]c2ccccc12", "RAM network inhibition", "%", 0.16],
  ["Cc1nc2ccccc2c(=O)n1NC(=O)c1c(O)c2ccccc2n(C)c1=O", "RAM network inhibition", "%", 0.88],
  ["O=S(=O)(NCc1csc(-c2cccnc2)n1)c1cccs1", "RAM network inhibition", "%", 1.3],
  ["COc1ccc(C2(O)CCN(C(=O)Cc3cccnc3)CC2)cc1", "RAM network inhibition", "%", 1.03],
  ["CCOc1ccc(-c2nc(CSCC(=O)N3CCN(C(=O)c4ccco4)CC3)c(C)o2)cc1", "RAM network inhibition", "%", 10.9],
  ["CC(NC(=O)c1ccco1)C(c1cccs1)N1CCN(c2ccccc2)CC1 (stereo not drawn)", "RAM network inhibition", "%", 5.06],
  ["O=C(Nc1ccccc1)C1CC(=O)N(C2CCCCC2)C1 (stereo not drawn)", "RAM network inhibition", "%", 3.42],
  ["O=C(CN1CCOc2ccccc21)NC1CCN(Cc2ccccc2)CC1", "RAM network inhibition", "%", 5.65],
  ["CCCCOc1ccc(C2(C)CC(=O)NC2=O)cc1 (stereo not drawn)", "RAM network inhibition", "%", -1.18],
  ["O=C1CCC(=O)N1CNc1cccnc1", "RAM network inhibition", "%", 5.5],
  ["Cn1c(C(=O)N2CCN(c3ccccc3F)CC2)cc2c(=O)n(C)c3ccccc3c21", "RAM network inhibition", "%", 1.59],
  ["CCOC(=O)N1CCN(C(=O)c2cnn3ccccc23)CC1", "RAM network inhibition", "%", -1.68],
  ["CC(=O)/C(C(=N)N1CCN(Cc2ccccc2)CC1)=C(\\C)O", "RAM network inhibition", "%", 2.85],
  ["O=C(C1=C(O)C(=O)N(CCN2CCOCC2)C1c1ccncc1)c1ccco1 (stereo not drawn)", "RAM network inhibition", "%", 2.42],
  ["CCOC(=O)C1CCCN(c2c(NCCCN3CCCC(C)C3)c(=O)c2=O)C1 (stereo not drawn)", "RAM network inhibition", "%", -0.87],
  ["CCN(CC)c1ccc(NC(=O)COc2ccc(C)cc2)cc1", "RAM network inhibition", "%", 0.45],
  ["O=C1C(=O)N(CCO)C(c2ccccc2)/C1=C(\\O)c1ccccc1 (stereo not drawn)", "RAM network inhibition", "%", 0.42],
  ["Cc1nc2scc(-c3cccs3)c2c(=O)o1", "RAM network inhibition", "%", 3.15],
  ["COc1ccc(NC(=O)NCCCN2CCc3ccccc3C2)cc1", "RAM network inhibition", "%", -1.19]
]}
